Biological target: CD28 (Homo sapiens, UniProt P10747)
Test: Jurkat/IL2 + K562/OKT3/PD-L1 reporter assay
Type: cell-based
Set-up: host or cells: Jurkat cells expressing an IL-2-luciferase reporter
Conditions: Table E8; K562/OKT3/PD-L1 aAPC; 50 nM
Measured Endpoint: Relative Luciferase Units (RLU), CD80-Fe Cone 50 nM
Lab book: enter the figure in RLU, no units written.

Any idea what its Relative Luciferase Units (RLU), CD80-Fe Cone 50 nM is? The molecule is Q33R/E35D/M47V/N48K/L85M/F92L (protein, UniProt P33681 35-288, looked up, variant Q33R E35D M47V N48K L85M F92L, Fc fusion) T-lymphocyte activation …: VIHVTKEVKEVATLSCGHNVSVEELAQTRIYWRKDKKMVLTMMSGDVKIWPEYKNRTIFDITNNLSIVILALRPSDEGTYECVVMKYEKDALKREHLAEVTLSVKADFPTPSISDFEIPTSNIRRIICSTSGGFPEPHLSWLENGEELNAINTTVSQDPETELYAVSSKLDFNMTTNHSFMCLIKYGHLRVNQTFNWNTTKQEHFPDNLLPSWAITLISVNGIFVICCLTYCFAPRCRERRRNERLRRESVRPV
215
